Molecular target: T1, human IL-11 (human, UniProt P20809 22-199)
T1 sequence: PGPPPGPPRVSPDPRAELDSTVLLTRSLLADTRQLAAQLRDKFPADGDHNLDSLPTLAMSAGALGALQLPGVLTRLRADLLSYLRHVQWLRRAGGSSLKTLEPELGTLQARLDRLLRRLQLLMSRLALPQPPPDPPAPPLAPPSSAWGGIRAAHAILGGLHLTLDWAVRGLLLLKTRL
Assay: cell-based or functional assay
Reported metric: RGA IC50 (nM)
State the answer as a number, implicitly in nM.

TPP-26300 (antibody, V domains shown) VH: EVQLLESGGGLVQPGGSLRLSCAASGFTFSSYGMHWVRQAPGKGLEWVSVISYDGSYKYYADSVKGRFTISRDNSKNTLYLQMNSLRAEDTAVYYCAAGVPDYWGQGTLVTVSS VL: QSVLTQPPSASGTPGQRVTISCTGSSSNIGAGYDVHWYQQLPGTAPKLLIYSNNERPSGVPDRFSGSKSGTSASLAISGLRSEDEADYYCAAWDSSLNGPVFGGGTKLTVL: 3.3

Turning to the following binder.
Given TPP-26299 (antibody, V domains shown) VH: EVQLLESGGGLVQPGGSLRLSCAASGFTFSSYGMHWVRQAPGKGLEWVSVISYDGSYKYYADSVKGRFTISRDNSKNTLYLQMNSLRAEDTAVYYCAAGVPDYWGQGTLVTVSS VL: QSVLTQPPSASGTPGQRVTISCTGSSSNIGAGYDVHWYQQLPGTAPKLLIYSNNERPSGVPDRFSGSKSGTSASLAISGLRSEDEADYYCAAWDDSLYGPVFGGGTKLTVL , state its recorded RGA IC50.
3.1
